tested on: E. coli; experiment: Broth dilution MIC determination (CLSI) against E. coli strains; assay type: cell-based; conditions: Escherichia coli, read-out: MIC E. coli NDM-1, NDM-1
METRIC: MIC

Please review the following examples before continuing.
COMPOUND	STUDY_TARGET	REPORTED_VALUE
CC[C@H]1OC(=O)[C@H](C)C(=O)[C@H](C)[C@@H](O[C@@H]2OC(CNC(=O)c3ccccn3)CC(N(C)C)C2O)[C@](C)(OC)C[C@@H](C)CN[C@H](C)[C@H]2N(CCCCn3cc(-c4cccc(N)c4)nn3)C(=O)O[C@]12C (some centres unmarked) [FSM-21887]	E. coli	32 µg/mL
C=CCOC(=O)NCC1CC(N(C)C)C(O)[C@H](O[C@@H]2[C@@H](C)C(=O)[C@@H](C)C(=O)O[C@H](CC)[C@@]3(C)OC(=O)N(CCCCn4cc(-c5cccc(N)c5)nn4)[C@@H]3[C@@H](C)NC[C@H](C)C[C@@]2(C)OC)O1 (some centres unmarked) [FSM-21795]	E. coli	> 32 µg/mL

Query: Recorded MIC of CC[C@H]1OC(=O)[C@H](C)C(=O)[C@H](C)[C@@H](O[C@@H]2OC(CN(C)C)CC(N(C)C)C2O)[C@](C)(OC)C[C@@H](C)CN(C)[C@H](C)[C@H]2N(CCCCn3cc(-c4cccc(N)c4)nn3)C(=O)O[C@]12C (some centres unmarked) [FSM-22003] , please.
Response: > 32 µg/mL

Query: Check CC[C@H]1OC(=O)[C@H](C)C(=O)[C@H](C)[C@@H](O[C@@H]2OC(CNS(=O)(=O)c3cccnc3)CC(N(C)C)C2O)[C@](C)(OC)C[C@@H](C)CN[C@H](C)[C@H]2N(CCCCn3cc(-c4cccc(N)c4)nn3)C(=O)O[C@]12C (some centres unmarked) [FSM-21876] too.
Response: > 32 µg/mL

Query: Check CC[C@H]1OC(=O)[C@H](C)C(=O)[C@H](C)[C@@H](O[C@@H]2OC(CNC(=N)N)CC(N(C)C)C2O)[C@](C)(OC)C[C@@H](C)CN[C@H](C)[C@H]2N(CCCCn3cc(-c4cccc(N)c4)nn3)C(=O)O[C@]12C (some centres unmarked) [FSM-21843] too.
Response: > 32 µg/mL

Query: Check CC[C@H]1OC(=O)[C@H](C)C(=O)[C@H](C)[C@@H](O[C@@H]2OC(CNC(=O)C(Cl)Cl)CC(N(C)C)C2O)[C@](C)(OC)C[C@@H](C)CN[C@H](C)[C@H]2N(CCCCn3cc(-c4cccc(N)c4)nn3)C(=O)O[C@]12C (some centres unmarked) [FSM-21842] too.
Response: 32 µg/mL

Query: Check CC[C@H]1OC(=O)[C@H](C)C(=O)[C@H](C)[C@@H](O[C@@H]2OC(CN(CCN)CCN)CC(N(C)C)C2O)[C@](C)(OC)C[C@@H](C)CN[C@H](C)[C@H]2N(CCCCn3cc(-c4cccc(N)c4)nn3)C(=O)O[C@]12C (some centres unmarked) [FSM-21877] too.
Response: 32 µg/mL

Query: Check CC[C@H]1OC(=O)[C@H](C)C(=O)[C@H](C)[C@@H](O[C@@H]2OC(Cn3cc(-c4cnc(N)s4)nn3)CC(N(C)C)C2O)[C@](C)(OC)C[C@@H](C)CN[C@H](C)[C@H]2N(CCCCn3cc(-c4cccc(N)c4)nn3)C(=O)O[C@]12C (some centres unmarked) [FSM-22125] too.
Response: > 32 µg/mL
